System: MDA-MB-231/ATCC
Test Summary: NCI 60 five-dose screen MDA-MB-231/ATCC
Format: cell-based
Experimental Setup: Homo sapiens, five-dose, read-out: LC50 (the source's name) (converted)
Assay Readout: CC50 (µM)
Return type: number; implicit unit µM.

Use the examples below as a reference point.
The molecule FC(F)(F)c1cc2c(Cl)ncnc2n1CCN1CCCCC1 on MDA-MB-231/ATCC: CC50 was 50.1

The molecule FC(F)(F)CN1CCN(CCn2c(C(F)(F)F)cc3c(Cl)ncnc32)CC1 on MDA-MB-231/ATCC: CC50 was 11.5

The molecule FC(F)(F)c1cc2c(Cl)ncnc2n1CCN1CCOCC1 on MDA-MB-231/ATCC: CC50 was 53.7

The molecule OC1CCC(Cn2c(C(F)(F)F)cc3c(Cl)ncnc32)CC1 (centres unmarked) on MDA-MB-231/ATCC: CC50 was 69.2

Read the next record carefully.
The molecule FC(F)(F)c1cc2c(Cl)ncnc2n1CCC1CCOCC1 on MDA-MB-231/ATCC: CC50 was 43.7
